System: MET
Assay: MET biochemical kinase assay
Parameters: species or system human; concentration or dose not given beside the values
RESULT TYPE: Met Kinase % Inhibition (%)

CNS(=O)(=O)c1ccc2c(c1)C(=Cc1ccncc1)C(=O)N2 : 34.8
C=C(C)C1CC=C(C=C2C(=O)Nc3ccc(S(=O)(=O)N4CCOCC4)cc32)CC1 (centres unmarked) : 17.0
COc1cc(N(C)C)ccc1C=C1C(=O)Nc2c(Br)cc(Br)cc21 : 31.8
O=C1Nc2ccc(I)cc2C1=Cc1ccc(N2CCCC2)cc1 : 32.6
CNS(=O)(=O)c1ccc2c(c1)C(=Cc1cc(C(C)C)c(O)c(C(C)C)c1)C(=O)N2 : 23.0
CNS(=O)(=O)c1ccc2c(c1)C(=Cc1cc(Cl)cc(Cl)c1O)C(=O)N2 : 78.6
COc1cccc(C=C2C(=O)Nc3ccc(I)cc32)c1OC : 69.8
CC(C)(C)c1cc(C=C2C(=O)Nc3ccc(S(=O)(=O)Nc4ccc(C(F)(F)F)cc4)cc32)c(O)c(C(C)(C)C)c1 : 50.1
